# target.under.test: full length active recombinant SYK enzyme (Homo sapiens, UniProt P43405)
# Construct: full length active recombinant SYK enzyme (Millipore, Calif.)
# test.name: Inhibition of Syk tyrosine phosphorylation activity (LANCE TR-FRET kinase assay)
# condition.details: activity in the Syk assays, class symbols
Here the recorded IC50 is given for each entry.

Answered examples (3):
>  <compound>
CC(C)[C@@H](Nc1cnc(C(N)=O)c(Nc2ccc(S(=O)(=O)N(C)C)cc2)n1)C(N)=O

>  <IC50>
10 to 100 nM

$$$$
>  <compound>
CC(C)C[C@@H](Nc1cnc(C(N)=O)c(Nc2ccnc(N(C)C)c2)n1)C(N)=O

>  <IC50>
1 to 10 nM

$$$$
>  <compound>
NC(=O)c1ncc(N[C@@H]2CCCC(F)(F)[C@@H]2N)nc1Nc1cnc2ccccc2c1

>  <IC50>
10 to 100 nM

$$$$

Query :: Report IC50 for CCc1cc(Nc2nc(N[C@@H](C(N)=O)C(C)C)cnc2C(N)=O)sn1
Result :: 1 to 10 nM

Query :: Respond only with IC50 recorded for NC(=O)c1ncc(N[C@@H]2CCCC(F)(F)[C@@H]2N)nc1Nc1cccc(-c2ncccn2)c1
Result :: 100 to 1000 nM

Query :: Dear colleague, please send me the reported IC50 for NC(=O)c1ncc(N[C@@H]2CCCC[C@@H]2N)nc1Nc1ccc2[nH]ncc2c1 (racemic) when you can.
Result :: < 1 nM

Query :: Please supply the value of reported IC50 for the item Cc1cc(Nc2nc(N[C@H](CC(F)(F)F)C(N)=O)cnc2C(N)=O)sn1
Result :: 1 to 10 nM

Query :: State its IC50 for this compound: Cc1cc(Nc2nc(N[C@@H]3CCCC[C@@H]3N)cnc2C(N)=O)sn1
Result :: < 1 nM

###

# target.under.test: full length active recombinant SYK enzyme (Homo sapiens)
# Construct: full length active recombinant SYK enzyme (Millipore, Calif.)
# test.name: Inhibition of Syk tyrosine phosphorylation activity (LANCE TR-FRET kinase assay)
# condition.details: activity in the Syk assays, class symbols
# Description: The in vitro and in vivo human Syk activities of the inventive compounds can be determined by various procedures known in the art, such as a test for their ability to inhibit the activity of human plasma Syk. […] Potency of candidate molecules for inhibiting Syk tyrosine phosphorylation activity is assessed by measuring the ability of a test compound to inhibit Syk-mediated tyrosine phosphorylation of a Syk-specific substrate. […]
Measured IC50 accompanies every entry in the list below.

Query :: Tell me measured IC50 for Cc1cc(Nc2nc(N[C@H](C)C(N)=O)cnc2C(N)=O)sn1 please.
Result :: 10 to 100 nM

Query :: Give me measured IC50, please, for this compound: C[C@@H](Nc1cnc(C(N)=O)c(Nc2ccc3ncccc3c2)n1)C(N)=O
Result :: 1 to 10 nM

Query :: Kindly indicate its recorded IC50. Item: CCc1ccc(Nc2nc(N[C@H](CC)C(N)=O)cnc2C(N)=O)cn1
Result :: 10 to 100 nM

Query :: Fill in reported IC50 for this entry: Cc1ccc(Nc2nc(N[C@@H]3CCCC(F)(F)[C@@H]3N)cnc2C(N)=O)cc1C
Result :: 1 to 10 nM

Query :: Identify IC50 associated with the compound NC(=O)c1ncc(N[C@@H](C(N)=O)C2CC2)nc1Nc1cnc2ccccc2c1
Result :: 1 to 10 nM
